- assayed_system: recombinant CYP-17 (Homo sapiens (Human), UniProt P05093)
- Sequence (P05093 whole entry, species assumed): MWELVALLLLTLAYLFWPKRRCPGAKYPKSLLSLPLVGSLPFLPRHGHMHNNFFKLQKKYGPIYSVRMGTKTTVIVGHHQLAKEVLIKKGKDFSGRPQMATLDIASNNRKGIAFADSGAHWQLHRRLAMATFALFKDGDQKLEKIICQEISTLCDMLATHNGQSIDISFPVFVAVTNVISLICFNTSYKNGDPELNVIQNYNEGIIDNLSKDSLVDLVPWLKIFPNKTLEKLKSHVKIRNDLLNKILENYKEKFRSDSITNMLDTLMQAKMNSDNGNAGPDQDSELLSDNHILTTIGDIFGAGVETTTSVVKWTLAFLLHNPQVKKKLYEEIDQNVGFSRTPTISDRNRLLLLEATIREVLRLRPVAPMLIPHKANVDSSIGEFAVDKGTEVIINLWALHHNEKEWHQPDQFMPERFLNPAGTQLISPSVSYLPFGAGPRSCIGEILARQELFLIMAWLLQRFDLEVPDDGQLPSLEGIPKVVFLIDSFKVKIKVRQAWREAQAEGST
- protocol_notes: Cyp17 assay protocol (3H-acetic acid release from [21-3H] 17α-hydroxyl-Pregnenolone)
- Format: cell-based
- experimental_parameters: AD293 cells over-expressing recombinant CYP-17
experimental_readout: pIC50
Answers are plain numbers, as −log10 of the molar value.

Previously resolved entries follow.
CCS(=O)(=O)N1CCN(c2ccc(/C=C/c3cc(F)cc(-c4ccncc4)c3)cc2)CC1	8.30
CC(=O)N1CCN(c2ccc(/C=C/c3cc(Cl)cc(-c4ccncc4)c3)cc2)CC1	8.30
O=S(=O)(c1cccnc1)N1CCN(c2ccc(/C=C/c3cc(Cl)cc(Cn4ccnc4)c3)cc2)CC1	7.77
CC(=O)N1CCN(c2ccc(/C=C/c3cc(Cl)cc(COc4cccnc4)c3)cc2)CC1	6.87

// batch mode: one pIC50 value per listed entry
1. Fc1cc(/C=C/c2ccc(-c3ccncc3)cc2)cc(-c2ccncc2)c1
2. CC(=O)N1CCN(c2ccc(/C=C/c3cc(Cl)cc(Cc4cccnc4)c3)cc2)CC1

7.96
7.46

---

Kindly supply the reported pIC50 values for the records listed here.
- assayed_system: recombinant CYP-17 (Homo sapiens (Human), UniProt P05093)
- protocol_notes: Cyp17 assay protocol (3H-acetic acid release from [21-3H] 17α-hydroxyl-Pregnenolone)
- experimental_parameters: AD293 cells over-expressing recombinant CYP-17
Numbers only, as −log10 of the molar value.

Previously resolved entries follow.
O=S(=O)(N1CCN(c2ccc(CCc3cc(F)cc(-c4ccncc4)c3)cc2)CC1)C(F)(F)F	7.78
O=S(=O)(C1CC1)N1CCN(c2ccc(/C=C/c3cc(F)cc(-c4ccncc4)c3)cc2)CC1	8.30
CC(=O)N1CCN(c2ccc(/C=C/c3cc(F)cc(-c4cccnc4)c3)cc2)CC1	6.21
O=S(=O)(N1CCN(c2ccc(/C=C/c3cc(F)cc(-c4ccncc4)c3)cc2)CC1)C(F)(F)F	8.30

Please look at the following molecule next.
// query pIC50 value for entry CC(C)S(=O)(=O)N1CCN(c2ccc(/C=C/c3cc(F)cc(-c4ccncc4)c3)cc2)CC1
9.00

All values here come from patent US9725436B2.
